Hey, just so you know, these numbers are from PubChem BioAssay AID2060884.

Test system: NCI-H929 complex spheroids, viability % test/control
experimental.protocol: Anticancer human tumor NCI-H929 cell line growth inhibition [RAS]; active = viability on the fitted dose curve at most 10% of control; inactive = the rest
cond: second compound 0.0949 µM; first compound 0.000949 µM
Choose the fitting class; nothing outside active, inactive is accepted.

Record excerpt, results attached:
compound	answer.label
CC1(C)CCC(Nc2ncc(C(F)(F)F)c(-c3c[nH]c4c(P(C)(C)=O)c(C#N)ccc34)n2)CN1 (centres undefined) + CCn1c(-c2cccnc2C(C)OC)c2c3cc(ccc31)N1CCOC(CC(NC(=O)C(C(C)C)N(C)C(=O)C3(F)CCN(C(=O)C#CC(C)(C)N(C)C)CC3)C(=O)N3CCCC(N3)C(=O)OCC(C)(C)C2)C1	inactive
CC1(C)CCC(Nc2ncc(C(F)(F)F)c(-c3c[nH]c4c(P(C)(C)=O)c(C#N)ccc34)n2)CN1 (centres undefined) + CCn1c(-c2cc(N3CCN(C)CC3)cnc2C(C)OC)c2c3cc(ccc31)-c1csc(n1)CC(NC(=O)C1CC1C)C(=O)N1CCCC(N1)C(=O)OCC(C)(C)C2	active
CCc1c2c(nc3ccc(O)cc13)-c1cc3c(c(=O)n1C2)COC(=O)[C@]3(O)CC + CCn1c(-c2cc(N3CCN(C)CC3)cnc2C(C)OC)c2c3cc(ccc31)-c1csc(n1)CC(NC(=O)C1CC1C)C(=O)N1CCCC(N1)C(=O)OCC(C)(C)C2	active

Returns: the outcome recorded for CCc1c2c(nc3ccc(O)cc13)-c1cc3c(c(=O)n1C2)COC(=O)[C@]3(O)CC + CCn1c(-c2cccnc2C(C)OC)c2c3cc(ccc31)N1CCOC(CC(NC(=O)C(C(C)C)N(C)C(=O)C3(F)CCN(C(=O)C#CC(C)(C)N(C)C)CC3)C(=O)N3CCCC(N3)C(=O)OCC(C)(C)C2)C1 in this assay.
inactive

====

Tested on: NCI-H929 complex spheroids, viability % test/control
experimental.protocol: Anticancer human tumor NCI-H929 cell line growth inhibition [RAS]
cond: second compound 0.01 µM; first compound 1 µM; active compounds read low
assay.endpoint: viability, T/C (%)
Give bare numbers, in %.

See these solved cases before continuing.
compound	unit.spec	viability, T/C
CCC(CC)c1cc(NC2CCC(N)C2)n2nccc2n1 (stereo not drawn) + C=CC(=O)N1CCN(c2nc(OCC3CCCN3C)nc3c(F)c(-c4nc(N)cc(C)c4C(F)(F)F)c(Cl)cc23)C(C)C1	%	97.9
Cc1nc(N2CCC3(CC2)COC(C)C3N)c(CO)nc1Sc1ccnc(N)c1Cl (stereo not drawn) + C=CC(=O)N1CCN(c2nc(OCC3CCCN3C)nc3c(F)c(-c4nc(N)cc(C)c4C(F)(F)F)c(Cl)cc23)C(C)C1	%	96.5

Okay, next one:
For CC(C)NCC(C(=O)N1CCN(c2ncnc3c2C(C)CC3O)CC1)c1ccc(Cl)cc1 (stereo not drawn) + C=CC(=O)N1CCN(c2nc(OCC3CCCN3C)nc3c(F)c(-c4nc(N)cc(C)c4C(F)(F)F)c(Cl)cc23)C(C)C1 , write its viability, T/C.
104

====

Kindly supply the reported viability, T/C values for the records listed here.
Tested on: NCI-H929 complex spheroids, viability % test/control
experimental.protocol: Anticancer human tumor NCI-H929 cell line growth inhibition [RAS];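 note: compound exposure lasted seven days before viability was read; 100% = DMSO vehicle control viability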
cond: second compound 0.1 µM; first compound 0.3 µM; active compounds read low
One number for each entry, in %.

See these solved cases before continuing.
compound	assay.system	viability, T/C (%)
CC1(C)CCC(Nc2ncc(C(F)(F)F)c(-c3c[nH]c4c(P(C)(C)=O)c(C#N)ccc34)n2)CN1 (centres undefined) + C=CC(=O)N1CCN(c2nc(OCC3CCCN3C)nc3c(F)c(-c4nc(N)cc(C)c4C(F)(F)F)c(Cl)cc23)C(C)C1	NCI-H929 complex spheroids, viability % test/control	5.2
CCc1c2c(nc3ccc(O)cc13)-c1cc3c(c(=O)n1C2)COC(=O)[C@]3(O)CC + C=CC(=O)N1CCN(c2nc(OCC3CCCN3C)nc3c(F)c(-c4nc(N)cc(C)c4C(F)(F)F)c(Cl)cc23)C(C)C1	NCI-H929 complex spheroids, viability % test/control	0.65
CC1(C)CCC(Nc2ncc(C(F)(F)F)c(-c3c[nH]c4c(P(C)(C)=O)c(C#N)ccc34)n2)CN1 (centres undefined) + C#Cc1c(F)ccc2cc(O)cc(-c3ncc4c(N5CC6CCC(C5)N6)nc(OCC56CCCN5CC(F)C6)nc4c3F)c12	NCI-H929 complex spheroids, viability % test/control	5.88

Okay, next one:
Param request: viability, T/C | system NCI-H929 complex spheroids, viability % test/control | item CCc1c2c(nc3ccc(O)cc13)-c1cc3c(c(=O)n1C2)COC(=O)[C@]3(O)CC + C#Cc1c(F)ccc2cc(O)cc(-c3ncc4c(N5CC6CCC(C5)N6)nc(OCC56CCCN5CC(F)C6)nc4c3F)c12
0.71

====

Test system: NCI-H929 complex spheroids, viability % test/control
experimental.protocol: Anticancer human tumor NCI-H929 cell line growth inhibition [RAS];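 note: compound exposure lasted seven days before viability was read; 100% = DMSO vehicle control viability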
cond: second compound 0.03 µM; first compound 0.000949 µM; active compounds read low
assay.endpoint: viability, T/C

See these solved cases before continuing.
compound	assay.endpoint	result
CC1(C)CCC(Nc2ncc(C(F)(F)F)c(-c3c[nH]c4c(P(C)(C)=O)c(C#N)ccc34)n2)CN1 (centres undefined) + CCn1c(-c2cccnc2C(C)OC)c2c3cc(ccc31)N1CCOC(CC(NC(=O)C(C(C)C)N(C)C(=O)C3(F)CCN(C(=O)C#CC(C)(C)N(C)C)CC3)C(=O)N3CCCC(N3)C(=O)OCC(C)(C)C2)C1	viability, T/C	96.1%
CCc1c2c(nc3ccc(O)cc13)-c1cc3c(c(=O)n1C2)COC(=O)[C@]3(O)CC + CCn1c(-c2cccnc2C(C)OC)c2c3cc(ccc31)N1CCOC(CC(NC(=O)C(C(C)C)N(C)C(=O)C3(F)CCN(C(=O)C#CC(C)(C)N(C)C)CC3)C(=O)N3CCCC(N3)C(=O)OCC(C)(C)C2)C1	viability, T/C	74.8%
CC1(C)CCC(Nc2ncc(C(F)(F)F)c(-c3c[nH]c4c(P(C)(C)=O)c(C#N)ccc34)n2)CN1 (centres undefined) + CCn1c(-c2cc(N3CCN(C)CC3)cnc2C(C)OC)c2c3cc(ccc31)-c1csc(n1)CC(NC(=O)C1CC1C)C(=O)N1CCCC(N1)C(=O)OCC(C)(C)C2	viability, T/C	16.8%

Okay, next one:
For CCc1c2c(nc3ccc(O)cc13)-c1cc3c(c(=O)n1C2)COC(=O)[C@]3(O)CC + CCn1c(-c2cc(N3CCN(C)CC3)cnc2C(C)OC)c2c3cc(ccc31)-c1csc(n1)CC(NC(=O)C1CC1C)C(=O)N1CCCC(N1)C(=O)OCC(C)(C)C2 , write its viability, T/C.
19.6%

====

Kindly supply the reported viability, T/C values for the records listed here.
System: NCI-H929 complex spheroids, viability % test/control
experimental.protocol: Anticancer human tumor NCI-H929 cell line growth inhibition [RAS];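 note: compound exposure lasted seven days before viability was read; 100% = DMSO vehicle control viability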
cond: second compound 10 µM; first compound 0.00316 µM; active compounds read low
Give bare numbers, in %.

For each of the compounds below, note its viability, T/C.
1. Nc1ccn(C2OC(CO)C(O)C2(F)F)c(=O)n1 (stereo unspecified) + C#Cc1c(F)ccc2cc(O)cc(-c3ncc4c(N5CC6CCC(C5)N6)nc(OCC56CCCN5CC(F)C6)nc4c3F)c12
2. CC(C)n1nc(-c2ccc3oc(N)nc3c2)c2c(N)ncnc21 + C#Cc1c(F)ccc2cc(O)cc(-c3ncc4c(N5CC6CCC(C5)N6)nc(OCC56CCCN5CC(F)C6)nc4c3F)c12

1: 102; 2: 100

====

Tested on: NCI-H929 complex spheroids, viability % test/control
experimental.protocol: Anticancer human tumor NCI-H929 cell line growth inhibition [RAS];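 note: compound exposure lasted seven days before viability was read; 100% = DMSO vehicle control viability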
cond: second compound 0.316 µM; first compound 1 µM; active compounds read low
Kindly supply the reported viability, T/C values for the records listed here.
One number for each entry, in %.

See these solved cases before continuing.
compound	unit.spec	viability, T/C
C[C@@H](NC(=O)c1ncnc(N)c1Cl)c1ncc(C(=O)Nc2cc(C(F)(F)F)c(Cl)cn2)s1 + C=CC(=O)N1CCN(c2nc(OCC3CCCN3C)nc3c(F)c(-c4nc(N)cc(C)c4C(F)(F)F)c(Cl)cc23)C(C)C1	%	95
C=CC(=O)Nc1cc(Nc2nccc(-c3cn(C)c4ccccc34)n2)c(OC)cc1N(C)CCN(C)C + C#Cc1c(F)ccc2cc(O)cc(-c3ncc4c(N5CC6CCC(C5)N6)nc(OCC56CCCN5CC(F)C6)nc4c3F)c12	%	101
C[C@@H](NC(=O)c1ncnc(N)c1Cl)c1ncc(C(=O)Nc2cc(C(F)(F)F)c(Cl)cn2)s1 + C#Cc1c(F)ccc2cc(O)cc(-c3ncc4c(N5CC6CCC(C5)N6)nc(OCC56CCCN5CC(F)C6)nc4c3F)c12	%	85.9

For each of the compounds below, note its viability, T/C.
1. CC(C)NCC(C(=O)N1CCN(c2ncnc3c2C(C)CC3O)CC1)c1ccc(Cl)cc1 (centres undefined) + C#Cc1c(F)ccc2cc(O)cc(-c3ncc4c(N5CC6CCC(C5)N6)nc(OCC56CCCN5CC(F)C6)nc4c3F)c12
2. NC1c2ccccc2OC12CCN(c1cnc3c(N4CCCc5ncccc54)n[nH]c3n1)CC2 (centres undefined) + C=CC(=O)N1CCN(c2nc(OCC3CCCN3C)nc3c(F)c(-c4nc(N)cc(C)c4C(F)(F)F)c(Cl)cc23)C(C)C1
3. NC1c2ccccc2OC12CCN(c1cnc3c(N4CCCc5ncccc54)n[nH]c3n1)CC2 (centres undefined) + C#Cc1c(F)ccc2cc(O)cc(-c3ncc4c(N5CC6CCC(C5)N6)nc(OCC56CCCN5CC(F)C6)nc4c3F)c12
4. CCC(CC)c1cc(NC2CCC(N)C2)n2nccc2n1 (centres undefined) + C#Cc1c(F)ccc2cc(O)cc(-c3ncc4c(N5CC6CCC(C5)N6)nc(OCC56CCCN5CC(F)C6)nc4c3F)c12
5. CC(Nc1ccc2c(c1)OCCn1cc(N3C(=O)OCC3C(F)F)nc1-2)C(N)=O (centres undefined) + C=CC(=O)N1CCN(c2nc(OCC3CCCN3C)nc3c(F)c(-c4nc(N)cc(C)c4C(F)(F)F)c(Cl)cc23)C(C)C1
6. CCN1CCN(Cc2ccc(Nc3ncc(F)c(-c4cc(F)c5nc(C)n(C(C)C)c5c4)n3)nc2)CC1 + C=CC(=O)N1CCN(c2nc(OCC3CCCN3C)nc3c(F)c(-c4nc(N)cc(C)c4C(F)(F)F)c(Cl)cc23)C(C)C1

1. 106
2. 103
3. 99.8
4. 113
5. 112
6. 115

For each of the compounds below, note its viability, T/C.
1. C=CC(=O)Nc1cc(Nc2nccc(-c3cn(C)c4ccccc34)n2)c(OC)cc1N(C)CCN(C)C + C=CC(=O)N1CCN(c2nc(OCC3CCCN3C)nc3c(F)c(-c4nc(N)cc(C)c4C(F)(F)F)c(Cl)cc23)C(C)C1
2. CC1(O)CCCC1n1c(=O)c(C(F)F)cc2cnc(NC3CCN(S(C)(=O)=O)CC3)nc21 (centres undefined) + C#Cc1c(F)ccc2cc(O)cc(-c3ncc4c(N5CC6CCC(C5)N6)nc(OCC56CCCN5CC(F)C6)nc4c3F)c12
3. Nc1ccn(C2OC(CO)C(O)C2(F)F)c(=O)n1 (centres undefined) + C#Cc1c(F)ccc2cc(O)cc(-c3ncc4c(N5CC6CCC(C5)N6)nc(OCC56CCCN5CC(F)C6)nc4c3F)c12
4. CC(Nc1ccc2c(c1)OCCn1cc(N3C(=O)OCC3C(F)F)nc1-2)C(N)=O (centres undefined) + C#Cc1c(F)ccc2cc(O)cc(-c3ncc4c(N5CC6CCC(C5)N6)nc(OCC56CCCN5CC(F)C6)nc4c3F)c12
5. C=CC(=O)N1CCN(c2nc(OCC3CCCN3C)nc3c(F)c(-c4nc(N)cc(C)c4C(F)(F)F)c(Cl)cc23)C(C)C1 (centres undefined) + C#Cc1c(F)ccc2cc(O)cc(-c3ncc4c(N5CC6CCC(C5)N6)nc(OCC56CCCN5CC(F)C6)nc4c3F)c12
6. CC(C)NCC(C(=O)N1CCN(c2ncnc3c2C(C)CC3O)CC1)c1ccc(Cl)cc1 (centres undefined) + C=CC(=O)N1CCN(c2nc(OCC3CCCN3C)nc3c(F)c(-c4nc(N)cc(C)c4C(F)(F)F)c(Cl)cc23)C(C)C1
7. CC(=O)OC12COC1CC(O)C1(C)C(=O)C(O)C3=C(C)C(OC(=O)C(O)C(NC(=O)OC(C)(C)C)c4ccccc4)CC(O)(C(OC(=O)c4ccccc4)C21)C3(C)C (centres undefined) + C=CC(=O)N1CCN(c2nc(OCC3CCCN3C)nc3c(F)c(-c4nc(N)cc(C)c4C(F)(F)F)c(Cl)cc23)C(C)C1
8. CC1(O)CCCC1n1c(=O)c(C(F)F)cc2cnc(NC3CCN(S(C)(=O)=O)CC3)nc21 (centres undefined) + C=CC(=O)N1CCN(c2nc(OCC3CCCN3C)nc3c(F)c(-c4nc(N)cc(C)c4C(F)(F)F)c(Cl)cc23)C(C)C1

[105, 13.5, 1.19, 115, 110, 106, 2.24, 9.4]

For each of the compounds below, note its viability, T/C.
1. CCC(CC)c1cc(NC2CCC(N)C2)n2nccc2n1 (centres undefined) + C=CC(=O)N1CCN(c2nc(OCC3CCCN3C)nc3c(F)c(-c4nc(N)cc(C)c4C(F)(F)F)c(Cl)cc23)C(C)C1
2. O=C(c1ccc(F)c(F)c1Nc1ccc(I)cc1F)N1CC(O)([C@@H]2CCCCN2)C1 + C=CC(=O)N1CCN(c2nc(OCC3CCCN3C)nc3c(F)c(-c4nc(N)cc(C)c4C(F)(F)F)c(Cl)cc23)C(C)C1

101
54.4
